- Test Method Notes: Solubility of EV‐P in phosphate buffer and dissolution medium
- Assay type: physicochemical
- Condition Description: phosphate buffer / aqueous media pH 7.4; read-out: Solubility in phosphate buffer (pH 7.4)
Quantity: solubility (µg/mL)
Give your result in µg/mL as a bare value.

Request the reported solubility associated with C=C1[C@H](COC(=O)CCCCCCCCCCCCCCC)[C@@H](O)C[C@@H]1n1cnc2c(=O)[nH]c(N)nc21 1.1

====

- Test Method Notes: Equilibrium solubility of EV‐P in injectable oily vehicles (HPLC)
- Type: physicochemical
- Condition Description: oil or lipid, thermodynamic from solid; in Miglyol 812; 25°C, stored over 3 days; mean ± SD (n = 3)
Quantity: solubility at 3 days (µg/mL)
Use µg/mL as the unit, but write only the number.

Dear colleague, I am looking for the recorded solubility at 3 days of the following compound: C=C1[C@H](COC(=O)CCCCCCCCCCCCCCC)[C@@H](O)C[C@@H]1n1cnc2c(=O)[nH]c(N)nc21 620

====

- Test Method Notes: Equilibrium solubility of EV‐P in injectable oily vehicles (HPLC)
- Type: physicochemical
- Condition Description: oil or lipid, thermodynamic from solid; in oleic acid; 25°C, stored over 3 days; mean ± SD (n = 3)
Quantity: solubility at 3 days
Don't forget the unit after the value.

// lookup solubility at 3 days for C=C1[C@H](COC(=O)CCCCCCCCCCCCCCC)[C@@H](O)C[C@@H]1n1cnc2c(=O)[nH]c(N)nc21 5900 µg/mL

====

- Test Method Notes: Equilibrium solubility of EV‐P in injectable oily vehicles (HPLC)
- Type: physicochemical
- Condition Description: oil or lipid, thermodynamic from solid; in tricaprylin; 25°C, stored over 3 days; mean ± SD (n = 3)
Quantity: solubility at 3 days (µg/mL)
Could you give me the number in µg/mL? Just the number is fine.

// returns reported solubility at 3 days for input C=C1[C@H](COC(=O)CCCCCCCCCCCCCCC)[C@@H](O)C[C@@H]1n1cnc2c(=O)[nH]c(N)nc21 [EV‐P] 30

====

- Test Method Notes: Equilibrium solubility of EV‐P in injectable oily vehicles (HPLC)
- Assay type: physicochemical
- Condition Description: oil or lipid, thermodynamic from solid; in castor oil; 25°C, stored over 3 days; mean ± SD (n = 3)
Quantity: solubility at 3 days (µg/mL)
Numbers only; they are read as µg/mL.

Bench note: what solubility at 3 days did C=C1[C@H](COC(=O)CCCCCCCCCCCCCCC)[C@@H](O)C[C@@H]1n1cnc2c(=O)[nH]c(N)nc21 show? 2140

====

- Test Method Notes: Equilibrium solubility of EV‐P in injectable oily vehicles (HPLC)
- Format: physicochemical
- Condition Description: oil or lipid, thermodynamic from solid; in peanut oil; 25°C, stored over 3 days; mean ± SD (n = 3)
Quantity: solubility at 3 days (µg/mL)
Give a bare numeral; the unit µg/mL is implied.

solubility at 3 days for C=C1[C@H](COC(=O)CCCCCCCCCCCCCCC)[C@@H](O)C[C@@H]1n1cnc2c(=O)[nH]c(N)nc21 [EV‐P] ? 1950
